# test_system: α4β1 (Homo sapiens, UniProt P05556+P13612)
# Sequence (P13612 34-1032): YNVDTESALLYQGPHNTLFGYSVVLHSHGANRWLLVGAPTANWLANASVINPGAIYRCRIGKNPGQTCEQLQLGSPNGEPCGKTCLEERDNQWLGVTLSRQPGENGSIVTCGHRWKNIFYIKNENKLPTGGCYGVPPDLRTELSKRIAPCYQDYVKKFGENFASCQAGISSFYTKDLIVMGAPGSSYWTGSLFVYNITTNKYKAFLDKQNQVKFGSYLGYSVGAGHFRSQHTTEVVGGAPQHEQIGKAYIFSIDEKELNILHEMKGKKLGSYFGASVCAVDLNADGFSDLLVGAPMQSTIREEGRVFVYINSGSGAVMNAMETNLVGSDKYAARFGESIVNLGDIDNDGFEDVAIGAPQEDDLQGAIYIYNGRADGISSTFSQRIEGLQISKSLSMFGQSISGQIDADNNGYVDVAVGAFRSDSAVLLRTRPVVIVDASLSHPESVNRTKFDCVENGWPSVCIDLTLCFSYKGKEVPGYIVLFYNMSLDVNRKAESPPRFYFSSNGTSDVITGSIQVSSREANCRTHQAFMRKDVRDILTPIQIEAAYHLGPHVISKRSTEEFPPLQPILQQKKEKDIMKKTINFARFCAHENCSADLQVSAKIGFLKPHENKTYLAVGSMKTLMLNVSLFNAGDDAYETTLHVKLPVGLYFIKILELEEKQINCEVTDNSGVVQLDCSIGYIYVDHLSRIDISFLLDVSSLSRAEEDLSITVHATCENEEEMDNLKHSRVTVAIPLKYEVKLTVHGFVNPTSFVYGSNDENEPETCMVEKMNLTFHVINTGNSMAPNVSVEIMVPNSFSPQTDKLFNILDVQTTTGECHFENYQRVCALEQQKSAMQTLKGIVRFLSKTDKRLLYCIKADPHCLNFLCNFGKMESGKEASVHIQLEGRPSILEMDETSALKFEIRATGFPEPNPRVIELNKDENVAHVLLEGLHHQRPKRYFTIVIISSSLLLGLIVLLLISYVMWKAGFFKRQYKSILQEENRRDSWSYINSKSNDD
# Sequence (P05556 21-798): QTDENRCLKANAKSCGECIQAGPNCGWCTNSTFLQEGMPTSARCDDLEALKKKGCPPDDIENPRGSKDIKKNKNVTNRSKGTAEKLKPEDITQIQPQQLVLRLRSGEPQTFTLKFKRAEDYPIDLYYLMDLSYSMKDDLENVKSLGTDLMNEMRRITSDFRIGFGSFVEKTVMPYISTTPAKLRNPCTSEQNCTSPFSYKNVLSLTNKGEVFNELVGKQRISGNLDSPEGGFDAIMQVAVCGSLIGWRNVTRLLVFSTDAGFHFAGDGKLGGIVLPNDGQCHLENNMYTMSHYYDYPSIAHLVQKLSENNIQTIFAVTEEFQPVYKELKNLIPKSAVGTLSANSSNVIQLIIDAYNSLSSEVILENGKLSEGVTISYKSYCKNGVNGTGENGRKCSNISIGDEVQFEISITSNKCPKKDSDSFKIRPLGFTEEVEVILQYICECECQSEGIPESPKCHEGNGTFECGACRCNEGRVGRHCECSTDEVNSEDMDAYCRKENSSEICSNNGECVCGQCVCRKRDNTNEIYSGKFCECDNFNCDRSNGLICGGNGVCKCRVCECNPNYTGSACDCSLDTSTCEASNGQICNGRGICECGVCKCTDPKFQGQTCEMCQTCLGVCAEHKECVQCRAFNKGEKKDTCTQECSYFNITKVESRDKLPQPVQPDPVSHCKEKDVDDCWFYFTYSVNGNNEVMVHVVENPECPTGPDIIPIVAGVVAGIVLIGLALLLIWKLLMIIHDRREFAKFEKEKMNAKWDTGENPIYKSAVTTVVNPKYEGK
# assay_details: Ramos Cell Adhesion Assay (α4β1 Mediated Adhesion/VCAM-1)
# Format: cell-based
# Parameters: Ramos cells, (50 μL at 2×10^6/mL) labeled with 5 μM Calcein AM; endogenous in cells; host or cells: Ramos cells
# condition_notes: Ramos cells on recombinant hVCAM-1; read-out: α4β1 IC50
pIC50: −log10 of the molar value.
assay_readout: pIC50

The cases that follow already have their pIC50 on record.
compound: O=C(Nc1ccc(CC(NC(=O)C2C3CCC(CC3)N2C(=O)CCc2ccccc2)C(=O)O)cc1)c1c(Cl)cncc1Cl (stereo not shown)
recorded_measurement: 9.05
--
compound: COc1ccc(CC(=O)N2C3CCC(CC3)C2C(=O)NC(Cc2ccc(NC(=O)c3c(Cl)cncc3Cl)cc2)C(=O)O)cc1 (stereo not shown)
recorded_measurement: 6.94
--
compound: O=C(Nc1ccc(CC(NC(=O)C2C3CCC(CC3)N2C(=O)CCc2ccc(Cl)cc2)C(=O)O)cc1)c1c(Cl)cncc1Cl (stereo not shown)
recorded_measurement: 8.52

I: Cc1ccc(CCN2C3CCC(CC3)C2C(=O)NC(Cc2ccc(NC(=O)c3c(Cl)cncc3Cl)cc2)C(=O)O)cc1 (stereo not shown)
II: O=C(Nc1ccc(CC(NC(=O)C2C3CCC(CC3)N2C(=O)Cc2ccncc2)C(=O)O)cc1)c1c(Cl)cncc1Cl (stereo not shown)
III: Cc1ccc(NC(=O)N2C3CCC(CC3)[C@H]2C(=O)N[C@@H](Cc2ccc(NC(=O)c3c(Cl)cncc3Cl)cc2)C(=O)O)cc1
IV: O=C(Nc1ccc(CC(NC(=O)C2C3CCC(CC3)N2C(=O)Cc2ccc3ccccc3c2)C(=O)O)cc1)c1c(Cl)cncc1Cl (stereo not shown)
stdin: # desc sort on pIC50 across 4 compounds Please write the labels in the order that was asked for.
stdout: II, IV, I, III
(II: 8.52, IV: 7.20, I: 6.70, III: 6.23)

* * *

# test_system: human α4β7 (Homo sapiens, UniProt P13612+P26010)
# Construct: expressed in transfected cells
# Sequence (P13612 34-1032): as the sequence (P13612 34-1032) above
# Sequence (P26010 20-798): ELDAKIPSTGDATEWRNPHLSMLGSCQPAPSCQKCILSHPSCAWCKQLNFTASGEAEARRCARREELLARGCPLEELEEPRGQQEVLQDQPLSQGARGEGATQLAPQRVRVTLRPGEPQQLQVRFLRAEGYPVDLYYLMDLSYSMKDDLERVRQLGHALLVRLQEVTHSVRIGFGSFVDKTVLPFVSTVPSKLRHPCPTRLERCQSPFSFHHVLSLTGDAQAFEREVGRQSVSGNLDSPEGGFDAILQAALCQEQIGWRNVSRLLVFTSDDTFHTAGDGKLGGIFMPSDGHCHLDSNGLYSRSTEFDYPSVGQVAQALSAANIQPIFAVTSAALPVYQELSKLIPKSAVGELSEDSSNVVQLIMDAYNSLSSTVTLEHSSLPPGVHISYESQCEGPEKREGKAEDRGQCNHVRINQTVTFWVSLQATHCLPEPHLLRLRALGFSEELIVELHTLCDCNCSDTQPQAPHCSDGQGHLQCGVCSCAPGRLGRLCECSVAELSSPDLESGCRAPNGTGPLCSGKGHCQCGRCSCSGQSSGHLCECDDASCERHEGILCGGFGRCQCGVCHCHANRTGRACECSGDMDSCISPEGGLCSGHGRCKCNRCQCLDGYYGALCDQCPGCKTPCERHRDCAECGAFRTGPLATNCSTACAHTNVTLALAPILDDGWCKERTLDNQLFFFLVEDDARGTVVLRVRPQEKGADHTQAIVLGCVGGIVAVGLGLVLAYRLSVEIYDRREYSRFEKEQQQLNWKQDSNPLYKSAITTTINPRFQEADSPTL
# assay_details: α4β7-K562 Cell Adhesion Assay (α4β7 Mediated Adhesion/VCAM-1)
# Type: cell-based
# condition_notes: K562 cells expressing human α4β7 on recombinant hVCAM-1; read-out: α4β7 IC50
assay_readout: IC50 (nM)

The cases that follow already have their IC50 on record.
molecule: O=C(Nc1ccc(CC(NC(=O)C2C3CCC(CC3)N2C(=O)NCc2ccccc2)C(=O)O)cc1)c1c(Cl)cncc1Cl (stereo not shown)
IC50 / nM: 379

molecule: O=C(Nc1ccc(CC(NC(=O)C2C3CCC(CC3)N2C(=O)CCN2CCCCC2)C(=O)O)cc1)c1c(Cl)cncc1Cl (stereo not shown)
IC50 / nM: 86

molecule: O=C(Nc1ccc(CC(NC(=O)C2C3CCC(CC3)N2C(=O)Cc2ccsc2)C(=O)O)cc1)c1c(Cl)cncc1Cl (mixture of isomers) [Cpd 60]
IC50 / nM: 233

molecule: O=C(Nc1ccc(CC(NC(=O)C2C3CCC(CC3)N2C(=O)CCN2CCNCC2)C(=O)O)cc1)c1c(Cl)cncc1Cl (stereo not shown)
IC50 / nM: 141

molecule: Cc1ccc(NC(=O)N2C3CCC(CC3)[C@H]2C(=O)N[C@@H](Cc2ccc(NC(=O)c3c(Cl)cncc3Cl)cc2)C(=O)O)cc1
IC50 / nM: 124

1: O=C(Nc1ccc(CC(NC(=O)C2C3CCC(CC3)N2C(=O)c2cc(Cl)cc(Cl)c2)C(=O)O)cc1)c1c(Cl)cncc1Cl (stereo not shown)
2: O=C(Nc1ccc(CC(NC(=O)C2C3CCC(CC3)N2C(=O)Cc2csc3ccccc23)C(=O)O)cc1)c1c(Cl)cncc1Cl (stereo not shown) [Cpd 36]
stdin: Lab note: record which item had the higher IC50, 1 or 2 . Reply with the label of the item you choose.
stdout: 1
